# testParameters: 308.15 K; 100 kPa
Let's look at some compounds and their measured viscosity.

- smilesInput: "COP(=O)([O-])OC.C[N+]1(CCO)CCCC1"
  viscosity [mPa·s]: 496.1
- smilesInput: "CC/C=C\\CCO"
  viscosity [mPa·s]: 2.266
- smilesInput: "CS(C)=O"
  viscosity [mPa·s]: 1.63
- smilesInput: "CCCCCCn1cc[n+](C)c1.O=S(=O)([N-]S(=O)(=O)C(F)(F)F)C(F)(F)F"
  viscosity [mPa·s]: 41.36
- smilesInput: "CCCCCCCO"
  viscosity [mPa·s]: 4.275
- smilesInput: "C[N+](C)(C)CCC[n+]1ccccc1.N#C[N-]C#N.N#C[N-]C#N"
  viscosity [mPa·s]: 557.7

----------
# testName: xn = mol fraction of the nth substance listed
# testParameters: 318.15 K; 101 kPa; x2 = 0.4
metricName: viscosity (mPa·s)

- compound: "CCCCCCCO + CCCO"
  metricName: "viscosity"
  observedValue: 2.331
- compound: "CCN(CC)CCO + O=C1CCCCC1"
  metricName: "viscosity"
  observedValue: 1.309
- compound: "CCCCCCCO + CO"
  metricName: "viscosity"
  observedValue: 1.88
- compound: "CCCCCCCO + CCCCO"
  metricName: "viscosity"
  observedValue: 2.632
- compound: "CCCCCCCO + CCO"
  metricName: "viscosity"
  observedValue: 2.055

----------
# testParameters: 313.15 K; 100 kPa
± gives the uncertainty stated by the source.
Let's look at some compounds and their measured viscosity.

- smilesInput: "CS(C)=O"
  viscosity: "1.5 ± 0.02 mPa·s"
- smilesInput: "CCCCCCn1cc[n+](C)c1.O=S(=O)([N-]S(=O)(=O)C(F)(F)F)C(F)(F)F"
  viscosity: "33.79 ± 3.4 mPa·s"
- smilesInput: "CC/C=C\\CCO"
  viscosity: "2.012 ± 0.024 mPa·s"
- smilesInput: "COP(=O)([O-])OC.C[N+]1(CCO)CCCC1"
  viscosity: "366 ± 26 mPa·s"

----------
# testName: xn = mol fraction of the nth substance listed
# testParameters: 298.15 K; 101 kPa; x1 = 0.8
Let's look at some compounds and their measured log10(viscosity).
metricName: log10(viscosity) (log10 of the value in mPa·s)

- compound: "CC1(C)OCC(CO)O1 (stereo unspecified) + OCCO"
  observedValue: 0.99
- compound: "CS(C)=O + CO"
  observedValue: 0.20
- compound: "CS(C)=O + Cc1ccccc1"
  observedValue: 0.16
- compound: "CS(C)=O + O"
  observedValue: 0.38
- compound: "CCCCC + COC(C)=O"
  observedValue: -0.66
- compound: "CS(C)=O + CC#N"
  observedValue: 0.15

----------
# testName: xn = mol fraction of the nth substance listed
# testParameters: 318.15 K; 101 kPa; x2 = 0.15

- compound: "CCCCCCCO + CO"
  unitsText: "mPa·s"
  viscosity: 2.647
- compound: "CCCCCCCO + CCCO"
  unitsText: "mPa·s"
  viscosity: 2.83
- compound: "CCCCCCCO + CCO"
  unitsText: "mPa·s"
  viscosity: 2.75
- compound: "CCN(CC)CCO + O=C1CCCCC1"
  unitsText: "mPa·s"
  viscosity: 1.663
- compound: "CCCCCCCO + CCCCO"
  unitsText: "mPa·s"
  viscosity: 2.971

----------
# testParameters: 293.15 K; 100 kPa

- smilesInput: "CC/C=C\\CCO"
  viscosity, mPa·s: 3.336
- smilesInput: "CCCCC"
  viscosity, mPa·s: 0.222
- smilesInput: "OC1CCCCC1"
  viscosity, mPa·s: 83.29
- smilesInput: "COP(=O)([O-])OC.C[N+]1(CCO)CCCC1"
  viscosity, mPa·s: 1452
- smilesInput: "CCCCCCCO"
  viscosity, mPa·s: 7.018

----------
Let's look at some compounds and their measured viscosity.
# testName: xn = mol fraction of the nth substance listed
# testParameters: 298.15 K; 101 kPa; x2 = 0.3

- compound: "CCCCCCCO + CCCO"
  unitsText: "mPa·s"
  viscosity: 4.449
- compound: "CCCCCCCO + CO"
  unitsText: "mPa·s"
  viscosity: 3.627
- compound: "CCCCCCCO + CCO"
  unitsText: "mPa·s"
  viscosity: 3.969
- compound: "CS(C)=O + O"
  unitsText: "mPa·s"
  viscosity: 2.7
